Provenance of the data: ChEMBL document CHEMBL1687873

- tested.on: Human immunodeficiency virus type 1 reverse transcriptase (Human immunodeficiency virus 1)
pIC50: −log10 of the molar value.
reported.endpoint: pIC50

(A) CCC1=C(Sc2cc(C)cc(C)c2)C(COCCO)C(=O)NC1=O (centres undefined)
(B) CCOCC1C(=S)NC(=O)C(CC)=C1Sc1ccccc1 (centres undefined)
Q: Dear colleague, could you let me know whether A or B has the lower recorded pIC50? Thanks. Refer to your chosen item by its label in the answer.
A: B
